- System: MOLM14 cells
- test_name: Proliferation assay (spheroid assay) MOLM14
- Assay type: cell-based, human
- study_conditions: 8 days, MLL-AF9 cell line; read-out: spheroid assay_MOLM14 IC50
reported_property: IC50 (nM)
Write the number in nM without appending the unit.

Request: Tell me the measured IC50 of CC(=O)N1CCC(CN2CC[C@@H](Cc3cn(-c4ccc(F)cc4C(=O)N(C)C(C)C)c4cncc(C)c34)C2)CC1 [Compound 51a] , please.
Result: 13

###

- System: MEIS1 mRNA expression
- test_name: MEIS1 mRNA expression assay (Quantigene Singleplex) in MOLM14 cells
- Type: cell-based, human
- study_conditions: 48 hours incubation
reported_property: pIC50
FYI, pIC50 means -log10 of a concentration in mol per litre.

Request: Tell me the measured pIC50 of CC(=O)N1CCC(CN2CC[C@@H](Cc3cn(-c4ccc(F)cc4C(=O)N(C)C(C)C)c4cncc(C)c34)C2)CC1 [Compound 51a] , please.
Result: 7.96

###

- study_target: Menin/MLL (terbium chelate-labeled menin, FITC-MBM1 peptide) (Homo sapiens (Human), UniProt O00255)
- Sequence (O00255 other isoform, or with tags, fused parts or gaps): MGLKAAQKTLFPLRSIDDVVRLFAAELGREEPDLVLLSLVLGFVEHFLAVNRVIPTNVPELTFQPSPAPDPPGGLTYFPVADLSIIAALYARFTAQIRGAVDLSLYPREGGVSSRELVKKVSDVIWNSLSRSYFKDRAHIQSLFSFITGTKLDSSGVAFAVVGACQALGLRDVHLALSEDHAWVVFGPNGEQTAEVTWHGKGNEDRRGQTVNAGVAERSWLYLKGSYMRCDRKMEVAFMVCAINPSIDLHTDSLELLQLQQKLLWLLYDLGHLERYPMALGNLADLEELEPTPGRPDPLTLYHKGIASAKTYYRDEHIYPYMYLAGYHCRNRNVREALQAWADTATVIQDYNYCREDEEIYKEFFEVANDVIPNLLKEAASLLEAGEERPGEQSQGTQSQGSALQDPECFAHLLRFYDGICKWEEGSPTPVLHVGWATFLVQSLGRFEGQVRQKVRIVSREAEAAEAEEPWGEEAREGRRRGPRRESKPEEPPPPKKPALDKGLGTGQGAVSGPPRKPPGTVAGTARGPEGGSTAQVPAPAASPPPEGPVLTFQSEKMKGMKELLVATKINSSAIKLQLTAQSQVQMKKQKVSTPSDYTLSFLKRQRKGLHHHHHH
- test_name: Menin/MLL homogenous time-resolved fluorescence (HTRF) assay
- study_conditions: 30 min incubation of compound with labeled menin
- Description: To an untreated, white 384-well microtiter plate was added 40 nL 200× test compound in DMSO and 4 μL 2× terbium chelate-labeled menin (vide infra for preparation) in assay buffer (40 mM Tris·HCl, pH 7.5, 50 mM NaCl, 1 mM DTT (dithiothreitol) and 0.05% Pluronic F-127). […] The degree of fluorescence resonance energy transfer (the HTRF value) is expressed as the ratio of the fluorescence emission intensities of the FITC and terbium fluorophores (F^em 520 nm/F^em 490 nm). […]
reported_property: pIC50
FYI, pIC50 means -log10 of a concentration in mol per litre.

Request: Tell me the measured pIC50 of CC(=O)N1CCC(CN2CC[C@@H](Cc3cn(-c4ccc(F)cc4C(=O)N(C)C(C)C)c4cncc(C)c34)C2)CC1 [Compound 51a] , please.
Result: 10.62
